Experiment: Ratio of Cmax in healthy adult CSF to Cmax in healthy adult plasma at 150 mg, po administered as single dose
Format: ADME, organism-based
Details: human
assay-readout: Kp (%)
Kindly provide the numeric value in % only, without the unit symbol.

*Q* Look up Kp for this compound: CCOC(=O)C1=C[C@@H](OC(CC)CC)[C@H](NC(C)=O)[C@@H](N)C1.O=P(O)(O)O [OSELTAMIVIR PHOSPHATE]
*A* 2.1

---

Test: Apparent oral clearance in healthy adult plasma at 150 mg, po administered as single dose by LC/MS analysis
Format: ADME, organism-based
Details: human
assay-readout: CL/F (mL/min)
Kindly provide the numeric value in mL/min only, without the unit symbol.

*Q* Look up CL/F for this compound: CCOC(=O)C1=C[C@@H](OC(CC)CC)[C@H](NC(C)=O)[C@@H](N)C1.O=P(O)(O)O [OSELTAMIVIR PHOSPHATE]
*A* 8370

---

Experiment: Cmax in healthy adult CSF at 150 mg, po administered as single dose by LC/MS analysis
Format: ADME, organism-based, Cerebrospinal fluid
Parameters: dose 150 mg, route oral
Settings: human
assay-readout: Cmax (ng/mL)
Kindly provide the numeric value in ng/mL only, without the unit symbol.

*Q* Look up Cmax for this molecule: CCOC(=O)C1=C[C@@H](OC(CC)CC)[C@H](NC(C)=O)[C@@H](N)C1.O=P(O)(O)O [OSELTAMIVIR PHOSPHATE]
*A* 2.4

---

Assay: Half life in healthy adult plasma at 150 mg, po administered as single dose by LC/MS analysis
Assay type: ADME, organism-based
Details: human
assay-readout: half-life (h)
Kindly provide the numeric value in h only, without the unit symbol.

*Q* Look up half-life for this molecule: CCOC(=O)C1=C[C@@H](OC(CC)CC)[C@H](NC(C)=O)[C@@H](N)C1.O=P(O)(O)O [OSELTAMIVIR PHOSPHATE]
*A* 1.8

---

Experiment: Cmax in healthy adult plasma at 150 mg, po administered as single dose by LC/MS analysis
Format: ADME, organism-based
Parameters: dose 150 mg, route oral
Conditions: human
assay-readout: Cmax (ng/mL)
Kindly provide the numeric value in ng/mL only, without the unit symbol.

*Q* Look up Cmax for this molecule: CCOC(=O)C1=C[C@@H](OC(CC)CC)[C@H](NC(C)=O)[C@@H](N)C1.O=P(O)(O)O [OSELTAMIVIR PHOSPHATE]
*A* 115
